- study_target: GHS-R1a (Homo sapiens)
- Construct: expressed in transfected cells; host or cells: HEK293
- test: Radioligand binding assay, displacement of [125I-His9]ghrelin(1-28)
- conditions: GHS-R1a transfected HEK293 cells, [125I-His9]ghrelin(1-28) radioligand, determined in applicant's lab
reported_endpoint: IC50 (nM)
Output spec: scalar in nM, unitless text.

Example cases with answers are listed next.
O=c1c2cc(Oc3ccc(F)cn3)ccc2nc(-c2ccc(OCCO)cc2F)n1C[C@H]1CCCNC1 [Compound 14a] : 353
Cc1ccccc1-c1nc2ccc(Oc3ccc(F)cn3)cc2c(=O)n1C[C@H]1CCCN(CCF)C1 [Compound 5b] : 20.6
CC(=O)N1CCN(c2ccc(Oc3ccc4nc(-c5ccccc5C)n(C[C@H]5CCCNC5)c(=O)c4c3)cc2)CC1 [Compound 4f] : 587

Switching to the query record.
Quick one: IC50 of CC(C)N1CCC[C@H](Cn2c(-c3ccccc3F)nc3ccc(Oc4ccc(F)cn4)cc3c2=O)C1 [Compound 10a] ?
70.5

* * *

Measured log10(IC50) by item
- study_target: GHS-R1a (Homo sapiens, UniProt Q92847)
- Construct: expressed in transfected cells; host or cells: HEK293
- Sequence (Q92847 whole entry): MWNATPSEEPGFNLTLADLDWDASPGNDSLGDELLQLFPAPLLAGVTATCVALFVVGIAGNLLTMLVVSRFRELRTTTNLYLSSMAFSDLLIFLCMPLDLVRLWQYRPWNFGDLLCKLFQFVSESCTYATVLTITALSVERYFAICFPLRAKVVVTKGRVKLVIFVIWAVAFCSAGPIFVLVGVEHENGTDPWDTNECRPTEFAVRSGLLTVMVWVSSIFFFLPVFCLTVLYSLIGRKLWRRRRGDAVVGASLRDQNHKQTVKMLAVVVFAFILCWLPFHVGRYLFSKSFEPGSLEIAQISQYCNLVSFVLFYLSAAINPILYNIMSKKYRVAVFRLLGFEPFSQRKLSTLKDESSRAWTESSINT
- test: Radioligand binding assay, displacement of [125I-His9]ghrelin(1-28)
- conditions: GHS-R1a transfected HEK293 cells, [125I-His9]ghrelin(1-28) radioligand, determined in applicant's lab
Units before log transform: nM; reported quantity: IC50; transform: log10.

Example cases with answers are listed next.
CC(C)N1CCC[C@H](Cn2c(-c3ccc(OCCF)cc3F)nc3ccc(Oc4ccc(F)cn4)cc3c2=O)C1 [Compound 17a] : 1.25
O=c1c2cc(Oc3ccc4ncsc4c3)ccc2nc(-c2ccccc2F)n1C[C@H]1CCCNC1 [Compound 9b] : 1.20
CC(C)N1CCC[C@H](Cn2c(-c3ccc(OCCO)cc3F)nc3ccc(Oc4ccc(F)cc4)cc3c2=O)C1 [Compound 15b] : 0.36
Cc1ccccc1-c1nc2ccc(Oc3ccc4ncsc4c3)cc2c(=O)n1C[C@H]1CCCN(CCO)C1 [Compound 5i] : -0.40
Cc1ccccc1-c1nc2ccc(Oc3ccc4ncsc4c3)cc2c(=O)n1C[C@H]1CCCNC1 [Compound 4e] : 0.72
Cc1ccccc1-c1nc2ccc(C(=O)c3ccc(F)cc3)cc2c(=O)n1C[C@H]1CCCN(C(C)C)C1 [Compound 20] : 0.58

Switching to the query record.
Quick one: log10(IC50) of Cc1ccccc1-c1nc2ccc(C(=O)c3ccc(F)cc3)cc2c(=O)n1C[C@H]1CCCNC1 [Compound 19] ?
0.60

* * *

- study_target: GHS-R1a (Homo sapiens, UniProt Q92847)
- Construct: expressed in transfected cells; host or cells: HEK293
- test: Radioligand binding assay, displacement of [125I-His9]ghrelin(1-28)
- conditions: GHS-R1a transfected HEK293 cells, [125I-His9]ghrelin(1-28) radioligand, determined in applicant's lab
pIC50: −log10 of the molar value.
Outcome: yes (1) for pIC50 of at least 8; no (0) for anything lower.

Cc1ccccc1-c1nc2ccc(Oc3ccc(F)cn3)cc2c(=O)n1C[C@H]1CCCNC1 : no (0)

Quick check: does O=c1c2cc(Oc3ccc(F)cc3)ccc2nc(-c2ccc(OCCO)cc2F)n1C[C@H]1CCCNC1 [Compound 14b] have pIC50 greater than or equal to 8?
no (0)

Quick check: does Cc1ccccc1-c1nc2ccc(Oc3ccc4ncsc4c3)cc2c(=O)n1C[C@H]1CCCN(C(C)C)C1 have pIC50 greater than or equal to 8?
yes (1)

Quick check: does O=c1c2cc(Oc3ccc(F)cn3)ccc2nc(-c2ccccc2F)n1C[C@H]1CCCNC1 have pIC50 greater than or equal to 8?
no (0)

Quick check: does Cc1ccccc1-c1nc2ccc(Oc3ccc(Oc4ccc(F)cn4)nc3)cc2c(=O)n1C[C@H]1CCCN(CCO)C1 have pIC50 greater than or equal to 8?
no (0)
